Cited source: ChEMBL document CHEMBL3352013

# assay.system: MAP kinase-activated protein kinase 2 (Homo sapiens)
# protocol.text: Inhibition of MAPKAP-K2 (unknown origin) assessed as residual enzyme activity at 10 uM
measured.metric: Activity (%)
Please respond with the number in % and leave the unit unwritten.

Answered examples (3):
{"columns": ["smiles.string", "reported.measurement"],
 "data": [
  ["CO[C@H]1CC[C@H](NC(=O)c2n[nH]cc2NC(=O)c2ccccc2)CC1", 92],
  ["COc1cccc(OC)c1C(=O)Nc1c[nH]nc1C(=O)N[C@H]1CC[C@H](OC)CC1", 33],
  ["CO[C@H]1CC[C@H](NC(=O)c2n[nH]cc2NC(=O)c2ccc(-c3ccccc3)o2)CC1", 90]
]}

In: State its Activity: COc1cccc(OC)c1C(=O)Nc1c[nH]nc1C(=O)NCc1ccccc1
Out: 13
